- subject.of.test: T1, cynomolgus monkey GPRC5D (cynomolgus monkey)
- T1 construct: whole, on cells; HEK293T-cynoGPRC5D cells; also called cynoGPRC5D
- assay.method.text: FACS, HEK293T-cynoGPRC5D cells
reported.endpoint: MFI
Write no unit; give the number alone.

-- ask Recorded MFI for 90G6H3 (antibody, V domains shown, Mouse monoclonal antibody from hybridoma subclone) VH: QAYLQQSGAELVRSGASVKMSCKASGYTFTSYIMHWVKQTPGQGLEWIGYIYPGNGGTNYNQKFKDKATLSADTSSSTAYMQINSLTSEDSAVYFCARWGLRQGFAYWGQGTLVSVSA VL: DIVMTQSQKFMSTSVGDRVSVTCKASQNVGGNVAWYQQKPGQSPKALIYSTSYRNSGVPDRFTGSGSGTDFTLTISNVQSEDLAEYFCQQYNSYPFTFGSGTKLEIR , please?
-- reply 11400

-- ask And the next one, 108C4C12 (antibody, V domains shown, Mouse monoclonal antibody from hybridoma subclone) VH: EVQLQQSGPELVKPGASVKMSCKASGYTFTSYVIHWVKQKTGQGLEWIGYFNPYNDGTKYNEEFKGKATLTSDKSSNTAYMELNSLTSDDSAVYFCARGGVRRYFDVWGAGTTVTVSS VL: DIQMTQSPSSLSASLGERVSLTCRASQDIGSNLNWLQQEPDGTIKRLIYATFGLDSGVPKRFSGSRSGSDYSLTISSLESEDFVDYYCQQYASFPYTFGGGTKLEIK ?
-- reply 355
